assay: chemical genetic growth profiling, strain panel (AID 1159580);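 note: tested at 20 µM; growth read once vehicle control cultures reached saturation at 30 °C; 1 = growth at the plate median or of vehicle wells; lower values mean less growth of the strain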; settings: S. cerevisiae deletion strains, growth OD, locus YNL006W, strain LST8, hits give low values
In all, about 5,500 compounds went through this assay and about 2,000 (36%) were called active. Another 18% or so got no clear call; they are omitted. The list shows a part of the results.
measurementLabel: normalized growth

| compound | measurementLabel | result |
| --- | --- | --- |
| COc1ccc(-c2cn3cc(C)ccc3n2)cc1 | normalized growth | 0.995 (inactive) |
| CNC(=O)Sc1c(-c2ccc(Cl)cc2)nn(C(=O)NC)c1SC | normalized growth | 0.971 (inactive) |
| CC1C(c2ccccc2)N(C)C(c2ccccc2)CC1(O)c1ccc(F)cc1 (stereo unspecified) | normalized growth | 0.977 (inactive) |
| O=C(Nc1cc(C(F)(F)F)cc(C(F)(F)F)c1)C(Cl)(Cl)Cl | normalized growth | 0.974 (inactive) |
| Nc1ccccc1C(=O)Nc1cc(C(F)(F)F)cc(C(F)(F)F)c1 | normalized growth | 0.937 (inactive) |
| O=S(=O)(Nc1csc(C(F)(F)F)c1-c1ccccc1)c1cc(Br)c(Br)s1 | normalized growth | 0.973 (inactive) |

Every entry's value here was drawn from PubChem BioAssay AID1159580.
